Target: human GLP-1 receptor (GLP1R) (human, UniProt P43220 24-463)
Test: cell-based or functional assay
Numbered stars: 1 amine (or outer) side, 2 acyl side, 3 side chain; on linkers, the order of the positions; unused ones are H or OH. Square brackets hold non-standard residues; d marks the D form. Side chains are listed from the residue outwards. Ends that are not written are not given here. * marks the point of attachment. Phe(4-CH2NH2) = NCc1ccc(C[C@H](N)C(=O)O)cc1; C18 diacid = O=C(O)CCCCCCCCCCCCCCCCC(=O)*; C16 diacid = O=C(O)CCCCCCCCCCCCCCC(=O)*; γGlu = O=C(O)[C@H](CCC(=O)[*:2])N[*:1]; Met(O2) = CS(=O)(=O)CC[C@H](N)C(=O)O; αMeF = C[C@](N)(Cc1ccccc1)C(=O)O; αMeD = C[C@](N)(CC(=O)O)C(=O)O; AEEA = NCCOCCOCC(=O)O; Aib = CC(C)(N)C(=O)O
Provide the reported GLP1R EC50 human of each item.
Note: unit nM is implicit; provide only the numeric part.

The reported value for H[Aib]QGTFTSDYSKYLD[Aib]RAAK([AEEA-AEEA-γGlu-C20‑OH])DFVQWL[Met(O2)][αMeD]T-NH2 [TP588] in terms of GLP1R EC50 human is 2.92

Input H[Aib]QGTFTSDYSKYLDARAAK([AEEA-γGlu-C20‑OH])DFVQWL[Met(O2)][αMeD]T-NH2 [TP629] . Output GLP1R EC50 human: 2.23

Sure, the documented GLP1R EC50 human for H[Aib]QGTFTSDYSKYLD[Aib]RAAQ[Phe(4-CH2NH2)]([AEEA-AEEA-γGlu-C16 diacid])FVQWLLATK-{γGlu-NH2} [TP665] is 1.6

Data point: H[Aib]QGTFTSDYSKYLD[Aib]RAAQDFVQWLL[Phe(4-CH2NH2)]([AEEA-AEEA-γGlu-C18 diacid])TK-{γGlu-NH2} [TP682] ; GLP1R EC50 human = 2.31

GLP1R EC50 human in this record for H[Aib]QGTFTSD[Phe(4-CH2NH2)]([AEEA-AEEA-γGlu-C20‑OH])SKYLDARAAQDFVQWL[Met(O2)]DT-NH2 [TP580] : 0.46

get_value(item= H[Aib]QGTFTSDYSKYLDARAAQDFVQWL[Met(O2)]K([AEEA-AEEA-γGlu-C20‑OH])T-NH2 [TP603] , readout=GLP1R EC50 human) returns 1.17

Reported GLP1R EC50 human for H[Aib]QGTFTSDYSKYLDARAAK([AEEA-AEEA-γGlu-C20‑OH])D[αMeF]VQWL[Met(O2)]DT-NH2 [TP590] was 1.64

The binder identified as H[dS]QGTFTSDYSKYLD[Aib]RAAK([AEEA-AEEA-γGlu-C20‑OH])DFVQWL[Met(O2)]DT-NH2 [TP578] registered its GLP1R EC50 human at 4.95

What the record says about HXQGTFTSDXSKYLDARAAQDFVQWLLDT (D-Ser (s) at 2; Nle(1,2,3-triazole-4-C4-Lys-C16) at 10; C-terminal amide) [TP831] : GLP1R EC50 human is 0.08

Sure, the documented GLP1R EC50 human for H[dS]QGTFTSDYSKYLE[Aib]RAAK([AEEA-AEEA-γGlu-C20‑OH])DFVQWLL[Aib]TK-{γGlu-NH2} [TP579] is 14.7
